# Test system: D. rerio embryos
# measurement-description: D. rerio embryotoxicity "photoactivation" assay (ring-closed photoform in darkness, then in situ photoconversion)
# Format: in vivo, Danio rerio
# applied-conditions: ring-closed photoform applied to embryos at 3 dpf; 24 h in the dark, sealed vials, E3 medium, 0.2% DMSO; value ± STD
Starred links: 1 amine or outer side, 2 acyl side, 3 side chain; linkers in the order of their positions; H or OH if unused. Positions of bridges follow the written chain, without caps; N, C: chain ends. Non-standard residues stand in square brackets, D forms with d. Residues, ends and D or L forms follow the SMILES beside them. X2 = Cc1sc(C(=O)[C@@H]2CCCN2[*:2])cc1C1=C(c2cc(C(=O)[*:1])sc2C)CCC1; Leu(3R-OH) = CC(C)[C@@H](O)[C@H](N)C(=O)O; NMeL = CN[C@@H](CC(C)C)C(=O)O; Orn = NCCC[C@H](N)C(=O)O
LD50 (closed)^24h values by entry
Only the number, expressed in µg/mL, is required.

| compound | value-type | unit-of-measurement | readout-value |
| --- | --- | --- | --- |
| Cc1sc2cc1C1=C(CCC1)c1cc(sc1C)C(=O)[C@@H]1CCCN1C(=O)[C@H](C(C)C)NC(=O)[C@H](CCCCN)NC(=O)[C@H](C(C)C)NC(=O)[C@H](CC(C)C)NC(=O)[C@H](CCCCN)NC(=O)[C@@H]1CCCN1C(=O)[C@@H](Cc1ccccc1)NC(=O)[C@H](C(C)C)NC(=O)[C@H](CCCCN)NC(=O)[C@H](CC(C)C)NC(=O)[C@H](CCCCN)NC(=O)[C@H](C(C)C)NC2=O [Peptide 18] (VKLKV[dF]PKLVKV; linker N-C via X2) | LD50 (closed)^24h | µg/mL | 12.3 |

Please give measured LD50 (closed)^24h of the following entry: Cc1sc2cc1C1=C(CCC1)c1cc(sc1C)C(=O)[C@@H]1CCCN1C(=O)[C@H](CC(C)C)NC(=O)[C@H](CCCN)NC(=O)[C@H](C(C)C)NC(=O)[C@@H]1CCCN1C(=O)[C@@H](Cc1ccccc1)NC(=O)[C@H](CC(C)C)NC(=O)[C@H](CCCN)NC(=O)[C@H](CCCN)NC2=O [Peptide 5] 8.1

Please give measured LD50 (closed)^24h of the following entry: Cc1sc2cc1C1=C(CCC1)c1cc(sc1C)C(=O)[C@@H]1CCCN1C(=O)[C@H](C(C)C)NC(=O)[C@H](CCCN)NC(=O)[C@H]([C@H](O)C(C)C)NC(=O)[C@@H]1CCCN1C(=O)[C@@H](Cc1ccccc1)NC(=O)[C@H](C(C)C)NC(=O)[C@H](CCCN)NC(=O)[C@H]([C@H](O)C(C)C)NC2=O [Peptide 15] ([Leu(3R-OH)][Orn]V[dF]P[Leu(3R-OH)][Orn]V; linker N-C via X2) 56.1

Please give measured LD50 (closed)^24h of the following entry: CC[C@H](C)[C@@H]1NC(=O)c2cc(c(C)s2)C2=C(CCC2)c2cc(sc2C)C(=O)[C@@H]2CCCN2C(=O)[C@H]([C@@H](C)CC)NC(=O)[C@H](CCCN)NC(=O)[C@H](CC(C)C)NC(=O)[C@H](CC(C)C)N(C)C(=O)[C@@H](Cc2ccccc2)NC(=O)[C@H]([C@@H](C)CC)NC(=O)[C@H](CCCN)NC1=O [Peptide 10] (I[Orn]I[dF][NMeL]L[Orn]I; linker N-C via X2) 9.5

Please give measured LD50 (closed)^24h of the following entry: Cc1sc2cc1C1=C(CCC1)c1cc(sc1C)C(=O)[C@@H]1CCCN1C(=O)[C@H](C)NC(=O)[C@H](CCCN)NC(=O)[C@H](C(C)C)NC(=O)[C@@H]1CCCN1C(=O)[C@@H](Cc1ccccc1)NC(=O)[C@H](CC(C)C)NC(=O)[C@H](CCCN)NC(=O)[C@H](C(C)C)NC2=O [Peptide 3] 31.1

Please give measured LD50 (closed)^24h of the following entry: Cc1sc2cc1C1=C(CCC1)c1cc(sc1C)C(=O)[C@@H]1CCCN1C(=O)[C@H]([C@H](O)C(C)C)NC(=O)[C@H](CCCN)NC(=O)[C@H](C(C)C)NC(=O)[C@@H]1CCCN1C(=O)[C@@H](Cc1ccccc1)NC(=O)[C@H](C(C)C)NC(=O)[C@H](CCCN)NC(=O)[C@H](C(C)C)NC2=O [Peptide 14] 50.4
